# ASSAYED_TARGET: RARα (Mus musculus (Mouse), UniProt P11416)
# Sequence (P11416 183-417): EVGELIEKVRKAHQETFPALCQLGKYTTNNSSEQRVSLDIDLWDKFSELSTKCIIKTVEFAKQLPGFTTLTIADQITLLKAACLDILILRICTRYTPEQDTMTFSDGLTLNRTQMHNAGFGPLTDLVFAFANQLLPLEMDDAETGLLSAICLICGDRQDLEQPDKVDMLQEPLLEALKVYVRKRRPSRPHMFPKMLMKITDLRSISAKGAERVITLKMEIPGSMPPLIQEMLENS
# ASSAY_PROCEDURE: Transactivation assay for RARα (gal4-RAR fusion, pFR-luc reporter, COS-7 cells), Table 2
# CONDITIONS_USED: Table 2; COS-7 reporter; mean of three or more determinations; inactive = no agonist action at highest concentration tested
Listed compounds paired with reported EC50
Numeric answer only, unit nM assumed.

// query EC50 value for entry `Cc1ccc(Cl)c2oc(-c3nc(-c4ccc(C(=O)O)cc4)no3)cc12`
23

// query EC50 value for entry `Cc1cc(-c2noc(-c3cc4c(Cl)ccc(Cl)c4o3)n2)ccc1C(=O)O`
140

// query EC50 value for entry `Cc1ccc(Cl)c2cc(-c3nc(-c4ccc(C(=O)O)cc4Cl)no3)oc12`
150

// query EC50 value for entry `Cc1ccc(C(C)C)c2cc(-c3nc(-c4ccc(C(=O)O)cc4)no3)oc12`
25

// query EC50 value for entry `O=C(O)c1ccc(-c2noc(-c3cc4c(Cl)ccc(Cl)c4o3)n2)c(Cl)c1`
67

// query EC50 value for entry `Cc1ccc(C)c2oc(-c3nc(-c4ccc(C(=O)O)cc4)no3)cc12`
26

// query EC50 value for entry `Cc1cc(C(=O)O)ccc1-c1nnc(-c2cc3c(C)ccc(C)c3o2)o1`
91

Hey, just so you know, these numbers are from patent US10752616B2.
